Experiment: Plasma protein binding in mouse assessed as fraction unbound by LC-MS/MS analysis
Type: ADME, cell-free
Property: fraction unbound

// Input: `O=C1N2C[C@@H](CC[C@H]2F)N1OS(=O)(=O)[O-].[Na+]` . Output its fraction unbound only. > 0.93

---

Assay: Plasma protein binding in dog assessed as fraction unbound by LC-MS/MS analysis
Format: ADME, cell-free, Canis lupus familiaris
Property: fraction unbound

Give fraction unbound for `O=C1N2C[C@@H](CC[C@H]2F)N1OS(=O)(=O)[O-].[Na+]` > 0.93

---

Experiment: Inhibition of beta lactamase CTXM-15 in Enterobacter cloacae assessed as decrease in enzyme activity using nitrocefin as substrate preincubated for 10 mins followed by substrate addition measured for 10 mins by fluorescence plate reader analysis
Parameter: IC50. Scope: all listed entries.

molecule=O=C1N2C[C@@H](CC[C@H]2CF)N1OS(=O)(=O)[O-].[Na+] property=IC50 observed_value="119 nM"

# return recorded IC50 for entry `O=C1N2CCC[C@H](C2)N1OS(=O)(=O)[O-].[Na+]` 1200 nM

Quick one: give measured IC50 for `O=C1N2C[C@@H](CC[C@H]2S(=O)(=O)C(F)(F)F)N1OS(=O)(=O)[O-].[Na+]` 2 nM

Supply measured IC50 of `O=C1N2C[C@@H](CC[C@H]2C(Cl)Cl)N1OS(=O)(=O)[O-].[Na+]` in your reply. 178 nM
